Target: HGF (hepatocyte growth factor/scatter factor) (UniProt P14210;P14210 P14210:32-494,P14210:495-728)
Sequence (P14210 32-494, chain 1 of 2): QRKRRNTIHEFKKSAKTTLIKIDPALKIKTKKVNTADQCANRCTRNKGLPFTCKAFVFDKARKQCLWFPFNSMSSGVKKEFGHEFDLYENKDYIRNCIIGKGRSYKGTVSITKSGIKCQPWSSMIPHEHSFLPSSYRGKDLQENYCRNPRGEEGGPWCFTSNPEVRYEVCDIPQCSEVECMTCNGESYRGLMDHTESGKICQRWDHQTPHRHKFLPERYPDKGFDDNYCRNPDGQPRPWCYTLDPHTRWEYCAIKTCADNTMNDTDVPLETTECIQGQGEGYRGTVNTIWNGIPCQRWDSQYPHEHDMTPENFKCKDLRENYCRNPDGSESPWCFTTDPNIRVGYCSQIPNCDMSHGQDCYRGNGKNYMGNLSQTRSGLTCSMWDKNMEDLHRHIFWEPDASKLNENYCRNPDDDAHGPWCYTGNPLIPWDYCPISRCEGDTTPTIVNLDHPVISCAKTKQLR
Sequence (P14210 495-728, chain 2 of 2): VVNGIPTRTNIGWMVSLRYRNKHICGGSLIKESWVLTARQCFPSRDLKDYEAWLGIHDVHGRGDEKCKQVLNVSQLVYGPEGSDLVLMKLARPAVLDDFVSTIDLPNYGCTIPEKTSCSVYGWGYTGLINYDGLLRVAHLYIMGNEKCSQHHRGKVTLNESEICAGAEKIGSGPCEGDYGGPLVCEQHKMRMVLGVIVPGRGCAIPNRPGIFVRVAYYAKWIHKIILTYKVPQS
Experiment: filter; HBSMC, 37C
Conditions: tags: R&D Systems
Kd by entry:

Some binders with known Kd results, for comparison:
>  <binder>
11-203 (ssRNA, 2'-F pyrimidines) RNA: GGGAGGACGAUGCGGGGUUUUUCUUUUCUUGUUCUCUUCUUUCCCCCAGACGACUCGCCCGA

>  <Kd>
0.26 nM

$$$$
>  <binder>
10-1 (ssRNA, 2'-F pyrimidines) RNA: GGGAGAUAAGAAUAAACGCUCAAAGUGAUGUGAGAGCGUGCCUCUAGUCGGUGUUCGACAGGAGGCUCACAACAGGC

>  <Kd>
0.094 nM

$$$$

Can you share its Kd? I mean this binder: 10-3 (ssRNA, 2'-F pyrimidines) RNA: GGGAGAUAAGAAUAAACGCUCAAGCCUGAGUUAAACAUGACGGGUUUUGUGACCCCUUUCGACAGGAGGCUCACAACAGGC
0.072 nM

Dear colleague, I am looking for the recorded Kd of the following binder: 8-125 (ssRNA, 2'-F pyrimidines) RNA: GGGAGGACGAUGCGGUGUGAACCUGUUUAUGUCAUCUUUUGUCGUCAGACGACUCGCCCGA
0.075 nM

Any idea what its Kd is? The binder is 8-101 (ssRNA, 2'-F pyrimidines) RNA: GGGAGGACGAUGCGGGUGACUCAAAAUGGUGAUCCUCGAUUUCCGCCAGACGACUCGCCCGA
0.095 nM

Returns the measured Kd for the input binder. Input: 10-62 (ssRNA, 2'-F pyrimidines) RNA: GGGAGAUAAGAAUAAACGCUCAAGUUAGACUCAACAUGAGUCCCAGCCUCAAUUCGACAGGAGGCUCACAACAGGC
0.44 nM

I have this binder here, 8-17 (ssRNA, 2'-F pyrimidines) RNA: GGGAGGACGAUGCGGGCGGCUCGAUGUCGUCUUAUCCCUUUGCCCCAGACGACUCGCCCGA , and I need its recorded Kd.
0.095 nM
